- SUBJECT OF TEST: Odor Binding Protein-like (OBPL)
pKd: −log10 of the molar value.
OBSERVATION TYPE: pKd

c1ccc(Nc2cccc3ccccc23)cc1 = 5.59
